Where these numbers come from: PubChem BioAssay AID549

- system.under.test: phosphomevalonate kinase (Streptococcus pneumoniae D39)
- assay.text: S. pneumoniae PMK inhibitor potency, dose response, biochemical, mevalonate pathway, coupling enzyme counter-screen (AID 549)
- condition.set: PK/LDH coupled NADH absorbance 340 nm
The source made the active and inactive calls.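 How the source made its calls: active means clearly stronger inhibition of phosphomevalonate kinase than of the coupling enzymes alone in a parallel counterscreen; inactive means the rest.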
outcome.measure: outcome

Please review the following examples before continuing.
compound	outcome
CCCn1cnc2c(cnn2-c2ccc(F)cc2)c1=O	inactive
CCC(C)(C)NC(=O)C(c1ccccc1F)N(Cc1ccco1)C(=O)c1csnn1 (stereo not drawn)	inactive
COc1ccc(OCC(=O)N2CCN(c3nnc(-c4ccccc4)c4ccccc34)CC2)cc1	inactive
COc1ccccc1CN(Cc1cc2cc(C)cc(C)c2[nH]c1=O)Cc1nnnn1CC1CCCO1 (stereo not drawn)	inactive
CCOc1ccc2[nH]c(=O)c(CN(CCO)C(=O)c3ccc(Br)cc3)cc2c1	inactive

Consider the compound shown here: CC(C)(C)NC(=O)CSc1nnc(-c2ccccn2)n1-c1ccccc1 What is its recorded outcome? inactive

Reported outcome for Cc1cccc2cc(CN(CCN3CCCC3)C(=O)NC3CCCCC3)c(=O)[nH]c12 : what is it? inactive

Give the measured outcome of COCCNC(=O)c1ccc2c(c1)NC(=O)CS2 . inactive

# outcome lookup, item CCN(CC)CCSc1nc(O)c(C(C)C)c(=O)[nH]1 inactive

What value of outcome has been recorded for this entry: Cc1csc(NC(=O)CN2CCCCCC2)n1 inactive

Return reported outcome; argument: Cc1sc2ncnc(NCC(c3ccco3)N(C)C)c2c1C (stereo not drawn) inactive

What does the record list as outcome for COc1ccccc1CNC(=O)C1CCN(S(=O)(=O)N2CC(C)CC(C)C2)CC1 (stereo not drawn) ? inactive

Recorded outcome of Cc1cc2c(C(F)(F)F)cc(=O)oc2c2c1NCCC2 , please. inactive

Report outcome for CCn1c2ccccc2c2cc(CN3CCN(C(=O)c4ccco4)CC3)ccc21 please. inactive

Name the reported outcome value associated with the compound Cc1oc2c(O)c(O)ccc2c(=O)c1-c1ccccc1 inactive

Any idea what outcome was measured for Cc1cccc(OCCCc2c(C)n[nH]c2C)c1 ? inactive
